B1: Thyroid hormone receptor beta (Homo sapiens), P10828-1 (parent)
chain: MTPNSMTENGLTAWDKPKHCPDREHDWKLVGMSEACLHRKSHSERRSTLKNEQSSPHLIQTTWTSSIFHLDHDDVNDQSVSSAQTFQTEEKKCKGYIPSYLDKDELCVVCGDKATGYHYRCITCEGCKGFFRRTIQKNLHPSYSCKYEGKCVIDKVTRNQCQECRFKKCIYVGMATDLVLDDSKRLAKRKLIEENREKRRREELQKSIGHKPEPTDEEWELIKTVTEAHVATNAQGSHWKQKRKFLPEDIGQAPIVNAPEGGKVDLEAFSHFTKIITPAITRVVDFAKKLPMFCELPCEDQIILLKGCCMEIMSLRAAVRYDPESETLTLNGEMAVTRGQLKNGGLGVVSDAIFDLGMSLSSFNLDDTEVALLQAVLLMSSDRPGLACVERIEKYQDSFLLAFEHYINYRKHHVTHFWPKLLMKVTDLRMIGACHASRFLHMKVECPTELFPPLFLEVFED

# Variants of: B1
# RUN PARAMETERS: with ncoa3_human NCOA3, Q9Y6Q9
# Sequence (Q9Y6Q9 whole entry, looked up): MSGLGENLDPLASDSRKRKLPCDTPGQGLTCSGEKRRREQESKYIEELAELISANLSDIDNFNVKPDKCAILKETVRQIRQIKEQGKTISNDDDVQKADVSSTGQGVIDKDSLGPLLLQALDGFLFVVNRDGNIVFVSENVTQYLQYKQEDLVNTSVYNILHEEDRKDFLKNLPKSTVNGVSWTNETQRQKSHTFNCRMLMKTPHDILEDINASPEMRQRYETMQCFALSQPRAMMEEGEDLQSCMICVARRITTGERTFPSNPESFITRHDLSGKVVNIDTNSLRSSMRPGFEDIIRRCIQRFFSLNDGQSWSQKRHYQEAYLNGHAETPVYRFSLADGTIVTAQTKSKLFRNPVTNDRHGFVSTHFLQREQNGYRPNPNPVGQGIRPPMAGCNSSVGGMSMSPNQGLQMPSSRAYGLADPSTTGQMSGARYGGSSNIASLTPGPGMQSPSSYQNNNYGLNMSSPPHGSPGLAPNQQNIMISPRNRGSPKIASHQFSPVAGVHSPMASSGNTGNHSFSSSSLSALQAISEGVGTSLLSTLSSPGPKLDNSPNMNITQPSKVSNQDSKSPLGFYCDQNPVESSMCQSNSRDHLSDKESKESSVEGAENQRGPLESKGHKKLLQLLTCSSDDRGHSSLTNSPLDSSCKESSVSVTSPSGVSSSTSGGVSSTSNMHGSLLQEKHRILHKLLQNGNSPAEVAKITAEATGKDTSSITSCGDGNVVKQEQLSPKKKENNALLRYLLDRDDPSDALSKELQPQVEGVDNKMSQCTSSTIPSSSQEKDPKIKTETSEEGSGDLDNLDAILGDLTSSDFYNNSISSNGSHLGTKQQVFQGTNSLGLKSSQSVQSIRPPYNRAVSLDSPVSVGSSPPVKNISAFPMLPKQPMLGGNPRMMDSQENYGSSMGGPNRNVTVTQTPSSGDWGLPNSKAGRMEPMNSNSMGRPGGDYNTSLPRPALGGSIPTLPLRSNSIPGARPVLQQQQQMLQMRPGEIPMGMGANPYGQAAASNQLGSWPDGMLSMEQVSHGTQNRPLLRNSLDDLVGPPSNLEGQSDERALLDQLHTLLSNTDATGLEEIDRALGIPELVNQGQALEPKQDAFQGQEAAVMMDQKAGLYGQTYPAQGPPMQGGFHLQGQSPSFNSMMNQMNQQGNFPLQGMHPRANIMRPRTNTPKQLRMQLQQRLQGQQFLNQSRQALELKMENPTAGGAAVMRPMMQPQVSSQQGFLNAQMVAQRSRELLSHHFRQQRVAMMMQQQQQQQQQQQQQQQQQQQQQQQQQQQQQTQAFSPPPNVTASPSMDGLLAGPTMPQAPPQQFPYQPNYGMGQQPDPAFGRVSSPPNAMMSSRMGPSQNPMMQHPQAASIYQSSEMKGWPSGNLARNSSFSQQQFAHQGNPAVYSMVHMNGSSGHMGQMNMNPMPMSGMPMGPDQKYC

VARIANT IDENTIFIER | effect of a mutation on the interaction
P214R | increasing interaction
R243W | increasing interaction
